Assay: in vivo
Design: species or system cat
Conditions: both sexes, po, 1.88 mg, Vd/F, Mean ± SD
Method: In this prospective pharmacokinetic study, 6 client-owned stable CKD cats, 2 each from International Renal Interest Society (IRIS) stages II, III and IV, […] and 6 age-matched (within 6 months) healthy geriatric control cats (AMC) were enrolled by stratified convenience sampling. […] Area under the curve to infinity (AUC∞), disappearance half-life (t½^λ), time to maximum serum concentration (Tmax), and maximum serum concentration (Cmax) were calculated. […]
measured metric: Vd/F (L)
Answers are plain numbers, in L.

Would you kindly share the measured Vd/F for CN1CCN2c3ncccc3Cc3ccccc3C2C1 (stereo not shown) ?
13.9

* * *

Assay: in vivo
Design: species or system cat
Settings: both sexes, po, 1.88 mg, Cmax, Median
measured metric: Cmax (µg/mL)
Answers are plain numbers, in µg/mL.

Would you kindly share the measured Cmax for CN1CCN2c3ncccc3Cc3ccccc3C2C1 (stereo not shown) [mirtazapine] ?
0.0836

* * *

Experiment: in vivo
Design: species or system cat
Conditions: both sexes, po, 1.88 mg, CL/F, Median
Description: In this prospective pharmacokinetic study, 6 client-owned stable CKD cats, 2 each from International Renal Interest Society (IRIS) stages II, III and IV, […] and 6 age-matched (within 6 months) healthy geriatric control cats (AMC) were enrolled by stratified convenience sampling. […] Area under the curve to infinity (AUC∞), disappearance half-life (t½^λ), time to maximum serum concentration (Tmax), and maximum serum concentration (Cmax) were calculated. […]
measured metric: CL/F (mL/min/kg)
Numbers only, in mL/min/kg.

Would you kindly share the measured CL/F for CN1CCN2c3ncccc3Cc3ccccc3C2C1 (stereo not shown) ?
12.2

* * *

Experiment: in vivo
Set-up: species or system cat
Conditions: both sexes, po, 1.88 mg, CL/F, Mean ± SD
measured metric: CL/F (mL/min/kg)
Answers are plain numbers, in mL/min/kg.

Would you kindly share the measured CL/F for CN1CCN2c3ncccc3Cc3ccccc3C2C1 (stereo not shown) [mirtazapine] ?
13.2

* * *

Assay: in vivo
Set-up: species or system cat
Details: both sexes, po, 1.88 mg, Tmax, Mean ± SD
measured metric: Tmax

Would you kindly share the measured Tmax for CN1CCN2c3ncccc3Cc3ccccc3C2C1 (stereo not shown) [mirtazapine] ?
2 h

* * *

Assay: in vivo
Parameters: species or system cat
Details: both sexes, po, 1.88 mg, Tmax, Median
measured metric: Tmax

Would you kindly share the measured Tmax for CN1CCN2c3ncccc3Cc3ccccc3C2C1 (stereo not shown) [mirtazapine] ?
1 h

* * *

Test: in vivo
Design: species or system cat
Conditions: both sexes, po, 1.88 mg, Vd/F, Median
measured metric: Vd/F (L)
Give bare numbers, in L.

Would you kindly share the measured Vd/F for CN1CCN2c3ncccc3Cc3ccccc3C2C1 (stereo not shown) ?
14.4

* * *

Test: in vivo
Design: species or system cat
Details: both sexes, po, 1.88 mg, AUC∞, Mean ± SD
measured metric: AUC(0-inf) (ng·h/mL)
One number for each entry, in ng·h/mL.

Would you kindly share the measured AUC(0-inf) for CN1CCN2c3ncccc3Cc3ccccc3C2C1 (stereo not shown) [mirtazapine] ?
590

* * *

Experiment: in vivo
Design: species or system cat
Conditions: both sexes, po, 1.88 mg, AUC∞, Median
measured metric: AUC(0-inf) (ng·h/mL)
Give bare numbers, in ng·h/mL.

Would you kindly share the measured AUC(0-inf) for CN1CCN2c3ncccc3Cc3ccccc3C2C1 (stereo not shown) ?
561
